# measuredOn: Recombinant IKKα (Homo sapiens)
# Construct: purchased Millipore, Dundee, UK
# assayProcedure: DELFIA IKKα kinase assay (apparent Ki, Cheng-Prusoff)
# Type: biochemical
# conditionSet: non-italicised figure: DELFIA assay

| compound | qual | Ki, nM |
| --- | --- | --- |
| COCCCNc1cc(-c2cc(C#CC(C)(C)C)c3[nH]nc(N)c3c2)ccn1 | > | 3000 |
| CC(C)(C)c1ccc(-c2cc(-c3ccnc(N)c3)cc3c(N)n[nH]c23)cc1 | = | 160 |
| CC(C)(C)C#Cc1cc(-c2ccnc(NC(=O)C3CC3)c2)cc2c(N)n[nH]c12 | = | 15 |
| Nc1nccc(-c2ccc3[nH]nc(N)c3c2)c1C#CCO | = | 6 |
| CC(C)(O)CCC#Cc1c(-c2ccc3[nH]nc(N)c3c2)ccnc1N | = | 28 |
| Cc1ccccc1NC(=O)Nc1cc(-c2ccc3[nH]nc(N)c3c2)ccn1 | = | 46 |
| Nc1n[nH]c2ccc(-c3ccnc(NC(=O)Nc4ccccc4)c3)cc12 | = | 12 |
| Nc1n[nH]c2ccc(-c3ccnc(NC(=O)NCc4ccncc4)c3)cc12 | = | 304 |
| Nc1nccc(-c2ccc3[nH]nc(N)c3c2)c1C#CCCO | = | 1 |

* * *

# measuredOn: IKBKB (IKKβ) (Homo sapiens, UniProt O14920)
# Construct: purchased Life Technologies (assay performed by the vendor)
# Sequence (O14920 whole entry): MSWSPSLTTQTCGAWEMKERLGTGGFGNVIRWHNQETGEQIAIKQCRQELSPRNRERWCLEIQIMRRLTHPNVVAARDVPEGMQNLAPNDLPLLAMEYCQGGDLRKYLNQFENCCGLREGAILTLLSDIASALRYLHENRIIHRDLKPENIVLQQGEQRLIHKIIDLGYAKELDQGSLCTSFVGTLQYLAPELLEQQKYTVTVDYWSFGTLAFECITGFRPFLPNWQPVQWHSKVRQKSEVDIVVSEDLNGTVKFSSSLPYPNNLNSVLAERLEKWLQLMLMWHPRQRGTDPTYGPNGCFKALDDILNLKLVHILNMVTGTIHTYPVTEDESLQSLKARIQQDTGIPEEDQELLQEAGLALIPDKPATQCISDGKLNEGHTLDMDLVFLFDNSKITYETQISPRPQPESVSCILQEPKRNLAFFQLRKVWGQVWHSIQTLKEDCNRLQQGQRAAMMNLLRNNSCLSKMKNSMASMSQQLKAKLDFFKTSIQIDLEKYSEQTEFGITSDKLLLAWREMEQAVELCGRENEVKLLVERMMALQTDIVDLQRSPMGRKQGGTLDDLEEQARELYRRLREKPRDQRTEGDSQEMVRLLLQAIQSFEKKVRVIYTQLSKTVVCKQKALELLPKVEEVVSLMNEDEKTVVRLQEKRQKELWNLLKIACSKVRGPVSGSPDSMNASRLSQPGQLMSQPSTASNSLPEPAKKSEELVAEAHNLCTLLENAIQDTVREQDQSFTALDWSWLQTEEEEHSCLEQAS
# assayProcedure: Z'-LYTE IKKβ assay (Life Technologies)
# Type: biochemical
pIC50: −log10 of the molar value.
# pIC50 listing for each entry below

| molecule | pIC50 |
| --- | --- |
| Nc1n[nH]c2ccc(-c3ccnc4[nH]c(C5CCCCN5)cc34)cc12 (stereo not drawn) [Example 250] | 6.09 |
| CC(C)(C)NCc1cc2c(-c3ccc4[nH]nc(N)c4c3)ccnc2[nH]1 [Example 248] | 5.84 |
| Nc1n[nH]c2c(C#CCCCN3CCOCC3)cc(-c3ccnc4[nH]ccc34)cc12 [Example 210] | 5.99 |
| Nc1n[nH]c2ccc(-c3ccnc4[nH]c(C(=O)N5CCCC5)cc34)cc12 [Example 234] | 6.10 |
| Nc1n[nH]c2ccc(-c3ccnc4[nH]c(CO)cc34)cc12 [Example 224] | 7.55 |
| Nc1n[nH]c2c(C#CCCCN3CCCCC3)cc(-c3ccnc4[nH]ccc34)cc12 [Example 212] | 5.95 |
| Nc1n[nH]c2ccc(-c3ccnc4[nH]c(C5CCOCC5)cc34)cc12 [Example 228] | 7.49 |
| Nc1n[nH]c2ccc(-c3ccnc4[nH]c(CCN5CCOCC5)cc34)cc12 [Example 268] | 6.86 |
| Nc1n[nH]c2ccc(-c3ccnc4[nH]c(C(=O)NC5CCCCC5)cc34)cc12 [Example 236] | 7.70 |

* * *

# measuredOn: CHUK (IKK alpha) (Homo sapiens)
# Construct: purchased Life Technologies (assay performed by the vendor)
# Sequence (O15111 1-745): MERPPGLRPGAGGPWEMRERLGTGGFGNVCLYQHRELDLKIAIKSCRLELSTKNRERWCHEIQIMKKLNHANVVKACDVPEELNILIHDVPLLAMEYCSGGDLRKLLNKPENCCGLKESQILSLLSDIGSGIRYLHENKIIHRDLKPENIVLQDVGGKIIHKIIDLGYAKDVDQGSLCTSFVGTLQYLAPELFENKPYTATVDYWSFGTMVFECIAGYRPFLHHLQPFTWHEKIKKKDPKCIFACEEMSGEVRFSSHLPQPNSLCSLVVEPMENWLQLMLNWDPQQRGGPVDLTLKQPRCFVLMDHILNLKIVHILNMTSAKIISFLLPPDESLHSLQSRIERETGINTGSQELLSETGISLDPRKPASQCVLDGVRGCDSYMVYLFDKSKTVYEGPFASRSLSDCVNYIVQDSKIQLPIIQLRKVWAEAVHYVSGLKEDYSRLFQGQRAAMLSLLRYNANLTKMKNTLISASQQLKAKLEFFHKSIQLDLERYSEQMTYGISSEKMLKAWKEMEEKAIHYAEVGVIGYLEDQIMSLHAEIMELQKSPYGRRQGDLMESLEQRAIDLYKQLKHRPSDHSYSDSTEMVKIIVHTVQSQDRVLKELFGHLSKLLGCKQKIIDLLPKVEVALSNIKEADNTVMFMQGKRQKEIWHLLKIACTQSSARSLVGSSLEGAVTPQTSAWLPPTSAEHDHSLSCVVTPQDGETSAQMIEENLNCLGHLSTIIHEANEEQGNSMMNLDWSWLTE
# assayProcedure: Adapta IKKα assay (TR-FRET ADP formation, Life Technologies)
# Type: biochemical
# conditionSet: Adapta assay (second line of an example)
Consider the cut-off 9 nM. If the recorded IC50 is strictly smaller, the label is T; if not, the label is F.

| molecule | measuredOn | assignedLabel |
| --- | --- | --- |
| Nc1n[nH]c2ccc(-c3ccnc4[nH]c(C(=O)N5CCCC5)cc34)cc12 | CHUK (IKK alpha) (Homo sapiens) | F |
| Nc1n[nH]c2ccc(-c3ccnc4[nH]c(C5CCCCN5)cc34)cc12 (stereo not drawn) | CHUK (IKK alpha) (Homo sapiens) | F |
| CC(C)(C)Cc1cc2c(-c3ccc4[nH]nc(N)c4c3)ccnc2[nH]1 | CHUK (IKK alpha) (Homo sapiens) | T |
| Nc1n[nH]c2ccc(-c3ccnc4[nH]c(CC5CCNCC5)cc34)cc12 | CHUK (IKK alpha) (Homo sapiens) | T |
| Nc1n[nH]c2ccc(-c3ccnc4[nH]c(C5CCCCO5)cc34)cc12 (stereo not drawn) | CHUK (IKK alpha) (Homo sapiens) | T |

* * *

# measuredOn: Recombinant IKKβ (Homo sapiens, UniProt O14920)
# Construct: purchased Millipore, Dundee, UK
# Sequence (O14920 whole entry): as the sequence (O14920 whole entry) above
# assayProcedure: DELFIA IKKβ kinase assay (apparent Ki, Cheng-Prusoff)
# Assay type: biochemical
# conditionSet: non-italicised figure: DELFIA assay
pKi: −log10 of the molar value.

| compound | pKi |
| --- | --- |
| COCCCNc1cc(-c2cc(C#CC(C)(C)C)c3[nH]nc(N)c3c2)ccn1 | < 4.52 |
| COCCNc1cc(-c2ccc3[nH]nc(N)c3c2)ccn1 | < 5.00 |
| Nc1nccc(-c2ccc3[nH]nc(N)c3c2)c1C1CC1 | < 5.00 |

* * *

# measuredOn: Recombinant IKKα (Homo sapiens, UniProt O15111)
# Construct: purchased Millipore, Dundee, UK
# assayProcedure: DELFIA IKKα kinase assay (apparent Ki, Cheng-Prusoff)
# Format: biochemical
# conditionSet: non-italicised figure: DELFIA assay
experimentalReadout: Ki (nM)

| compound | measuredOn | experimentalReadout | unitLabel | resultNumber |
| --- | --- | --- | --- | --- |
| CN(CCO)C(=O)Nc1cc(-c2ccc3[nH]nc(N)c3c2)ccn1 [Example 44] | Recombinant IKKα (Homo sapiens, UniProt O15111) | Ki | nM | 418 |
| Nc1n[nH]c2ccc(-c3ccnc(NC(=O)NC4CCCCC4)c3)cc12 [Example 40] | Recombinant IKKα (Homo sapiens, UniProt O15111) | Ki | nM | 228 |
| Nc1n[nH]c2ccc(-c3ccnc(NC(=O)Nc4ccc(F)cc4)c3)cc12 [Example 62] | Recombinant IKKα (Homo sapiens, UniProt O15111) | Ki | nM | 22 |
| CC(C)c1ccccc1NC(=O)Nc1cc(-c2ccc3[nH]nc(N)c3c2)ccn1 [Example 68] | Recombinant IKKα (Homo sapiens, UniProt O15111) | Ki | nM | 100 |
| Nc1cc(-c2cc(C(F)(F)F)c3[nH]nc(N)c3c2)ccn1 [Example 3] | Recombinant IKKα (Homo sapiens, UniProt O15111) | Ki | nM | 38 |
| Nc1nccc(-c2ccc3[nH]nc(N)c3c2)c1CCCCO [Example 101] | Recombinant IKKα (Homo sapiens, UniProt O15111) | Ki | nM | 5580 |
| CS(=O)(=O)c1ccc(NC(=O)Nc2cc(-c3ccc4[nH]nc(N)c4c3)ccn2)cc1 [Example 65] | Recombinant IKKα (Homo sapiens, UniProt O15111) | Ki | nM | 27 |
| CC(C)(C)C#Cc1cc(-c2ccnc(NCC3CC3)c2)cc2c(N)n[nH]c12 [Example 157] | Recombinant IKKα (Homo sapiens, UniProt O15111) | Ki | nM | 141 |
| Nc1cc(-c2cc(-c3ccccc3)c3[nH]nc(N)c3c2)ccn1 [Example 104] | Recombinant IKKα (Homo sapiens, UniProt O15111) | Ki | nM | 54 |
| CC(C)(C)CCc1cc(-c2ccnc(N)c2)cc2c(N)n[nH]c12 [Example 144] | Recombinant IKKα (Homo sapiens, UniProt O15111) | Ki | nM | 15 |
| Nc1ccccc1C#Cc1c(-c2ccc3[nH]nc(N)c3c2)ccnc1N [Example 78] | Recombinant IKKα (Homo sapiens, UniProt O15111) | Ki | nM | 17 |
| CC(C)(C)C#Cc1cc(-c2ccnc(NC(=O)CC3CC3)c2)cc2c(N)n[nH]c12 [Example 170] | Recombinant IKKα (Homo sapiens, UniProt O15111) | Ki | nM | 26 |
| Nc1nccc(-c2ccc3[nH]nc(N)c3c2)c1C#CCCN1CCOCC1 [Example 94] | Recombinant IKKα (Homo sapiens, UniProt O15111) | Ki | nM | 38 |
| Nc1n[nH]c2ccc(-c3ccnc(NC(=O)NC4CCCC4)c3)cc12 [Example 39] | Recombinant IKKα (Homo sapiens, UniProt O15111) | Ki | nM | 114 |
| CCOC(=O)Nc1cc(-c2ccc3[nH]nc(N)c3c2)ccn1 [Example 35] | Recombinant IKKα (Homo sapiens, UniProt O15111) | Ki | nM | 15 |
| CC(C)(C)C#Cc1cc(-c2ccnc(N)c2F)cc2c(N)n[nH]c12 [Example 149] | Recombinant IKKα (Homo sapiens, UniProt O15111) | Ki | nM | 8 |
| Nc1n[nH]c2c(-c3ccccc3)cc(-c3ccnc4[nH]ccc34)cc12 [Example 7] | Recombinant IKKα (Homo sapiens, UniProt O15111) | Ki | nM | 35 |
| CC(C)(C)C#Cc1cc(-c2ccnc(NC3CCC3)c2)cc2c(N)n[nH]c12 [Example 154] | Recombinant IKKα (Homo sapiens, UniProt O15111) | Ki | nM | 120 |
| COc1ccccc1C#Cc1c(-c2ccc3[nH]nc(N)c3c2)ccnc1N [Example 81] | Recombinant IKKα (Homo sapiens, UniProt O15111) | Ki | nM | 15 |
